Recorded values, source patent US6653296B1.

Tested on: Moloney murine sarcoma virus (MSV)
measurement.description: MSV-induced transformation of C3H/3T3 cells
Assay type: cell-based
condition.notes: concentration required to inhibit MSV-induced C3H/3T3 cell transformation by 50%; day 6
outcome.measure: EC50 MSV (mg/L)
Value expressed in mg/L; do not type the unit.

Problem: Field request: EC50 MSV | item: CCC(C)Nc1nc(N)nc2c1ncn2C[C@@H](C)OCP(=O)(O)O (stereo partly drawn) [(R)-9-PMP-6-(2-butyl)-DAP]
Result: 3.5

Problem: Field request: EC50 MSV | item: C[C@H](Cn1cnc2c(N(C)C)nc(N)nc21)OCP(=O)(O)O [(R)-9-PMP-6-dimethyl-DAP]
Result: 3.25

Problem: Field request: EC50 MSV | item: C[C@H](Cn1nnc2c(N)ncnc21)OCP(=O)(O)O [(R)-9-PMP-8-azaA]
Result: 0.43

Problem: Field request: EC50 MSV | item: CCCCNc1nc(N)nc2c1ncn2C[C@@H](C)OCP(=O)(O)O [(R)-9-PMP-6-butyl-DAP]
Result: 3.27

Problem: Field request: EC50 MSV | item: C[C@H](Cn1cnc2c(NCc3ccccc3)nc(N)nc21)OCP(=O)(O)O [(R)-9-PMP-6-benzyl-DAP]
Result: 0.3

Problem: Field request: EC50 MSV | item: C[C@H](Cn1cnc2c(N3CCOCC3)nc(N)nc21)OCP(=O)(O)O [(R)-9-PMP-6-morpholino-DAP]
Result: 6.1

Problem: Field request: EC50 MSV | item: C[C@H](Cn1cnc2c(S)ncnc21)OCP(=O)(O)O [(R)-9-PMP-6-thioPu]
Result: 18

Problem: Field request: EC50 MSV | item: C[C@H](Cn1cnc2c(S)nc(N)nc21)OCP(=O)(O)O [(R)-9-PMP-6-thioG]
Result: 3.94

Problem: Field request: EC50 MSV | item: C[C@H](Cn1cnc2c(N3CCCCC3)nc(N)nc21)OCP(=O)(O)O [(R)-9-PMP-6-piperidino-DAP]
Result: 12.6

====

Answer each item with its documented MIC.
Test system: C3H/3T3 cells
measurement.description: Microscopic alteration of C3H/3T3 cell culture morphology
Format: cell-based, murine
condition.notes: concentration that results in a microscopic alteration of the C3H/3T3 cell culture morphology

Problem: Field request: MIC | item: C[C@@H](Cn1cnc2c(=O)[nH]c(N)nc21)OCP(=O)(O)O [(S)-PMPG, 9-(S)-(2-Phosphonomethoxypropyl)guanine]
Result: 8 µg/mL

Problem: Field request: MIC | item: C[C@@H](Cn1cnc2c(N)nc(N)nc21)OCP(=O)(O)O [(S)-PMPDAP]
Result: >100 µg/mL

Problem: Field request: MIC | item: Nc1nc(N)c2ncn(C[C@H](CF)OCP(=O)(O)O)c2n1 [(R)-FPMPDAP, reference compound]
Result: >100 µg/mL
